- Test details: DPPH free radical extinction activity test
- Type: biochemical
- Test parameters: relative to α-tocopherol (= 2); 5 μl of 10 mM test compound, 30° C., 30 minutes, pH 5.5 buffer, 517 nm
Counter-ions that a name gives are not always drawn.
Measured property: Number of captured free radicals of DPPH

INSERT INTO assay_data (compound, assay_result) VALUES
  ('CCCOc1cc(CN2CCCCC2)c(O)c2c1NC(=O)CC2.Cl [Example 30]', 2),
  ('Cl.O=c1ccc2c(CN3CCCC3)c(O)ccc2[nH]1 [Example 22]', 1.5),
  ('COc1cc(CN(C)C)c(O)c2c1NC(=O)CC2.Cl [Example 35]', 1.5),
  ('C=CCOc1cc(CN2CCCCC2)c(O)c2c1N(CC=C(C)C)C(=O)CC2 [Example 32]', 1),
  ('C=CCOc1cc(CN2CCCCC2)c(O)c2c1NC(=O)CC2 [Example 33]', 1.5),
  ('O=C1CCc2c(O)c(CN3CCCC3)cc(OC3CCCCO3)c2N1 (centres unmarked) [Example 47]', 3.5),
  ('C=CCOc1cc(CN2CCCCC2)c(O)c2c1NC(=O)CC2 [Example 28]', 2),
  ('CCN(CC)Cc1cc(C)c2c(c1O)CCC(=O)N2 [Example 9]', 1),
  ('Cc1cc2c(c(CN3CCCC3)c1O)NC(=O)CC2 [Example 25]', 1),
  ('C=CCOc1cc(CN(C)C)c(O)c2c1NC(=O)CC2 [Example 18, hydrochloride]', 1.5),
  ('CCN(CC)Cc1ccc2c(c1O)CCC(=O)N2 [Example 13]', 1);

###

- Test system: skin pigmentation
- Test details: Effect for preventing skin pigmentation caused by UV rays irradiation
- Assay type: in vivo, colored guinea pig (A-1 strain, female)
- Test parameters: {1-[(E)/(F)]}×100; 3% test compound solution; 14 days after UV irradiation
Structures can show the parent of a compound that is named as a salt.
# reported Inhibitory ratio of skin pigmentation (%); entries follow
Measured property: Inhibitory ratio of skin pigmentation (%)

INSERT INTO measurements (compound, target_system, assay_result) VALUES
  ('CCCOc1cc(CN2CCCCC2)c(O)c2c1NC(=O)CC2.Cl', 'skin pigmentation', '50%'),
  ('C=CCOc1cc(CN2CCCCC2)c(O)c2c1NC(=O)CC2 [Example 28]', 'skin pigmentation', '43%'),
  ('O=C1CCc2c(O)c(CN3CCCC3)cc(OC3CCCCO3)c2N1 (centres unmarked)', 'skin pigmentation', '38%'),
  ('COc1cc(CN(C)C)c(O)c2c1NC(=O)CC2.Cl', 'skin pigmentation', '35%'),
  ('C=CCOc1cc(CN2CCCCC2)c(O)c2c1NC(=O)CC2 [Example 33]', 'skin pigmentation', '55%'),
  ('C=CCOc1cc(CN2CCCCC2)c(O)c2c1N(CC=C(C)C)C(=O)CC2', 'skin pigmentation', '42%'),
  ('Cc1cc2c(c(CN3CCCC3)c1O)NC(=O)CC2', 'skin pigmentation', '38%'),
  ('C=CCOc1cc(CN(C)C)c(O)c2c1NC(=O)CC2 [Example 18, hydrochloride]', 'skin pigmentation', '49%');

###

- System: skin erythema (sunburn)
- Test details: Effect for preventing skin sunburn caused by UV rays irradiation (in vivo)
- Design: species or system albino guinea pig (Hartley strain, female)
- Test parameters: 3% test compound solution, 10 μl; 24 hours after UV irradiation
Where a name gives a salt, the structure may show the parent alone.
# reported (C): Δa value of test section of skin coated with test compound solution; entries follow
Measured property: (C): Δa value of test section of skin coated with test compound solution

INSERT INTO assay_data (compound, assay_result) VALUES
  ('CCN(CC)Cc1cc(C)c2c(c1O)CCC(=O)N2', 4.69),
  ('COc1cc(CN(C)C)c(O)c2c1NC(=O)CC2.Cl', 3.61),
  ('C=CCOc1cc(CN2CCCCC2)c(O)c2c1NC(=O)CC2 [Example 33]', 3.96),
  ('CCN(CC)Cc1ccc2c(c1O)CCC(=O)N2', 3.93),
  ('C=CCOc1cc(CN(C)C)c(O)c2c1NC(=O)CC2 [Example 18, hydrochloride]', 3.87),
  ('CCCOc1cc(CN2CCCCC2)c(O)c2c1NC(=O)CC2.Cl', 4.73),
  ('C=CCOc1cc(CN2CCCCC2)c(O)c2c1NC(=O)CC2 [Example 28]', 1.13),
  ('C=CCOc1cc(CN2CCCCC2)c(O)c2c1N(CC=C(C)C)C(=O)CC2', 2.17),
  ('Cc1cc2c(c(CN3CCCC3)c1O)NC(=O)CC2', 3.31),
  ('O=C1CCc2c(O)c(CN3CCCC3)cc(OC3CCCCO3)c2N1 (centres unmarked)', 0.88),
  ('Cl.O=c1ccc2c(CN3CCCC3)c(O)ccc2[nH]1', 5.51);
